tested on: BEL-7402 cell line; assay: MTT cytotoxicity assay, BEL-7402; type: cell-based; settings: MTT method; BEL-7402 cells
recorded.metric: IC50 (µM)

INSERT INTO results (molecule, endpoint_unit, endpoint_value) VALUES
  ('N.N.[Cl][Pt][Cl] [Cisplatin, reference compound]', 'µM', 4.02);

---

Listed below: pIC50 values for each entry.
Test system: K562 cell line
Test: MTT cytotoxicity assay, K562
Type: cell-based
Conditions: Homo sapiens; MTT method; K562 cells
Description: The MTT method optimized by Mosmann ([1983]) was performed in vitro to test the cytotoxic activity of compounds 1–8. Cisplatin was used as a positive control. Compounds 1–8 were tested for inhibitory activity against α-glycosidase using the PNPG method and for cytotoxic effects on SGC-7901, K562, A549, BEL-7402, and Hela cell lines using the MTT method (See Supplementary Table 1 in the Supplementary Material).
pIC50: −log10 of the molar value.
recorded.metric: pIC50

INSERT INTO measurements (molecule, endpoint_value) VALUES
  ('COc1cccc(CCc2cc(OC)c(O)c3c2C(Cc2cccc(OC)c2)c2cc(O)c(O)c(OC)c2O3)c1 (centres unmarked)', 4.98),
  ('Oc1ccc(CCOCCc2ccc(O)cc2)cc1 [Compound 8, di-[2-(4-hydroxyphenyl)] ethyl ether]', '< 4.30'),
  ('COc1cccc(CC2C3=C(Oc4c2cc(O)c(O)c4OC)C(=O)c2cc(O)c4cc(O)ccc4c2C3=O)c1 (centres unmarked)', 4.55),
  ('CC(C)C1C2OC(=O)C1C1CCC3C(=O)OC2C31C (centres unmarked)', '< 4.30'),
  ('CC(C)C1C2OC(=O)C1C1CCC3(O)C(=O)OC2C13C (centres unmarked)', '< 4.30'),
  ('CC(C)C1C2OC(=O)C1C1(O)CC=CC1(C)C2NC=O (centres unmarked)', '< 4.30'),
  ('CC(C)C1C2OC(=O)C1C1CC=CC1(C)C2NC=O (centres unmarked)', '< 4.30'),
  ('CC(=O)/C=C/[C@@]1(O)C(C)=CC(=O)CC1(C)C [Compound 7, S(+)-dehydrovomifoliol]', '< 4.30');

Attribution: paper PMC6895213
